FYI, the data here is from patent US20240131007A1.

protocol-details: NIAID Antiviral Program for Pandemics primary assay (CPE/Tox), EV-71
conditions-used: CC50 µM, primary assay; EV-71; Visual (CPE/Tox)
attribute-measured: CC50 (µM)

smiles-input: Cc1ccc2[nH]c(-c3ccc(NC(=O)c4cccs4)cc3)nc2c1
attribute-measured: CC50
quantitative-readout: 32

* * *

Entries and their log10 of CC50 at 3 days
protocol-details: in vitro
conditions-used: African green monkey, CC50 (μM)
attribute-measured: log10 of CC50 at 3 days (log10 of the value in µM)

molecule: Cn1cccc1-c1nc2cc(NC(=O)c3cccs3)ccc2[nH]1 [Compound 58]
log10 of CC50 at 3 days: 1.80
--
molecule: Cc1ccc2[nH]c(-c3cccc(NC(=O)c4ccc(Br)o4)c3)nc2c1 [Compound 64]
log10 of CC50 at 3 days: 1.64
--
molecule: O=C(Nc1ccc(-c2nc3ccccc3[nH]2)cc1)c1ccc(Br)o1 [Compound 11]
log10 of CC50 at 3 days: 3.22
--
molecule: O=C(Nc1cccc(-c2nc3cc4ccccc4cc3[nH]2)c1)c1ccco1 [Compound 50]
log10 of CC50 at 3 days: 2.75
--
molecule: O=C(c1ccccc1)c1ccc2[nH]c(-c3ccc(NC(=O)c4ccco4)cc3)nc2c1 [Compound 45]
log10 of CC50 at 3 days: 1.77
--
molecule: COc1cc(C)c(S(=O)(=O)NCCc2c(C)[nH]c3ccccc23)cc1C [Compound T2]
log10 of CC50 at 3 days: 1.93
--
molecule: O=C(Nc1ccc(-c2nc3ccccc3[nH]2)cc1)c1ccc(-c2cccc(Cl)c2)o1 [Compound 27]
log10 of CC50 at 3 days: 1.83
--
molecule: O=C(Nc1ccc(-c2nc3ccccc3[nH]2)cc1)C1CC1 [Compound 2]
log10 of CC50 at 3 days: 2.17
--
molecule: Cc1ccc2[nH]c(-c3ccc(NC(=O)C(C)C)cc3)nc2c1 [Compound 33]
log10 of CC50 at 3 days: 2.67
--
molecule: c1ccc2[nH]c(-c3ccc(-c4nc5ccccc5[nH]4)cc3)nc2c1 [Compound 65, 2,2′-(1,4-phenylene)bis-1H-benzimidazole]
log10 of CC50 at 3 days: 2.58
--
molecule: O=C(Nc1ccc(-c2nc3ccccc3[nH]2)cc1)c1ccccn1 [Compound 8]
log10 of CC50 at 3 days: 2.39
--
molecule: Cc1ccc2[nH]c(-c3ccc(N)cc3)nc2c1 [Compound 59, 4-(5-methyl-1H-benzimidazol-2-yl)aniline]
log10 of CC50 at 3 days: 2.28
--
molecule: O=C(Nc1ccc2[nH]c(-c3ccc(Br)o3)nc2c1)c1ccc([N+](=O)[O-])cc1 [Compound 51]
log10 of CC50 at 3 days: 2.10
--
molecule: CC(=O)Nc1ccc(-c2nc3cc4ccccc4cc3[nH]2)cc1 [Compound 47]
log10 of CC50 at 3 days: 2.68
--
molecule: O=C(Nc1ccc(-c2nc3ccccc3[nH]2)cc1)c1ccc(N2CCOCC2)c([N+](=O)[O-])c1 [Compound 18]
log10 of CC50 at 3 days: 1.05

* * *

Property: CC50 at 3 days; scope: individual molecules
protocol-details: Cytotoxicity assay (Cell Titer Glo)
conditions-used: African green monkey, CC50 (μM), Table 12, Scaffold 3; Vero cells
attribute-measured: CC50 at 3 days (µM)

molecule: O=C(Nc1ccc2[nH]c(-c3ccco3)nc2c1)c1cccs1 [Compound 57]
result-modifier: =
quantitative-readout: 8.5
//
molecule: Cc1ccc(-c2nc3cc(NC(=O)c4cccs4)ccc3[nH]2)o1 [Compound 55]
result-modifier: >
quantitative-readout: 400
//
molecule: O=C(Nc1ccc2[nH]c(-c3cccs3)nc2c1)c1cccs1 [Compound 56]
result-modifier: =
quantitative-readout: 123
//
molecule: CC(=O)Nc1ccc2[nH]c(-c3ccc(Br)o3)nc2c1 [Compound 52]
result-modifier: =
quantitative-readout: 9.2

* * *

protocol-details: Cytotoxicity assay (Cell Titer Glo)
conditions-used: African green monkey, CC50 (μM), Table 10, Scaffold 1; Vero cells
attribute-measured: CC50 at 3 days (µM)

compound: O=C(CSc1ccc(Cl)cc1)Nc1ccc(-c2nc3ccccc3[nH]2)cc1 [Compound 25]
attribute-measured: CC50 at 3 days
result-unit: µM
result-modifier: =
quantitative-readout: 582

compound: O=C(Nc1ccc(-c2nc3ccccc3[nH]2)cc1)c1c(F)c(F)c(F)c(F)c1F [Compound 16]
attribute-measured: CC50 at 3 days
result-unit: µM
result-modifier: >
quantitative-readout: 400

compound: Cc1ccc2[nH]c(-c3ccc(NC(=O)Cc4cccs4)cc3)nc2c1 [Compound 35]
attribute-measured: CC50 at 3 days
result-unit: µM
result-modifier: >
quantitative-readout: 400

compound: O=C(Cc1cccs1)Nc1ccc(-c2nc3ccccc3[nH]2)cc1 [Compound 9]
attribute-measured: CC50 at 3 days
result-unit: µM
result-modifier: =
quantitative-readout: 338

compound: O=C(C=Cc1ccco1)Nc1ccc(-c2nc3ccccc3[nH]2)cc1 [Compound 20]
attribute-measured: CC50 at 3 days
result-unit: µM
result-modifier: >
quantitative-readout: 400

* * *

target-or-test-system: EV-A71 Δ2C^116-329 (Human enterovirus 71)
Construct: EV-A71 Δ2C (amino acids 116-329) was designed with; made in house; host or cells: E. coli Rosetta 2(DE3) pLysS, pMALc5x vector
Sequence (Q66478 1227-1440, stated change not applied): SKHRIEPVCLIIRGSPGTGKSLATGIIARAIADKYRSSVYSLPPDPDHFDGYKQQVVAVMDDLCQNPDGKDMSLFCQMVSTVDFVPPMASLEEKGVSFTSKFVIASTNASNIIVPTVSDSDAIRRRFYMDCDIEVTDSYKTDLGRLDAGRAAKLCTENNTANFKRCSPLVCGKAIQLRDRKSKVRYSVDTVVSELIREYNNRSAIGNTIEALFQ
protocol-details: biochemical
Type: biochemical
Threshold 20 µM. IC50 below it: True. IC50 at it or above: False.

smiles-input: Cc1ccc2[nH]c(-c3ccc(NC(=O)c4ccc(Br)o4)cc3)nc2c1
class: False
--
smiles-input: O=C(Nc1ccc(-c2nc3ccccc3[nH]2)cc1)c1ccc(C(=O)Nc2ccc(-c3nc4ccccc4[nH]3)cc2)cc1
class: True
--
smiles-input: O=C(Nc1ccc(-c2nc3ccccc3o2)cc1)c1ccc(NC(=O)c2cc3ccccc3o2)cc1
class: True
--
smiles-input: Cc1ccc2[nH]c(-c3ccc(NC(=O)c4cccc(Br)c4)cc3)nc2c1
class: True
--
smiles-input: O=C(Nc1ccc2[nH]c(-c3ccc(Br)o3)nc2c1)c1ccc([N+](=O)[O-])cc1
class: False
--
smiles-input: Cc1cccc(C(=O)Nc2ccc(-c3nc4ccccc4[nH]3)cc2)c1
class: False
--
smiles-input: Cc1ccc2[nH]c(-c3ccc(NC(=O)c4cccs4)cc3)nc2c1
class: False
--
smiles-input: O=C(C=Cc1ccco1)Nc1ccc(-c2nc3ccccc3[nH]2)cc1
class: True
--
smiles-input: COc1ccc(C(=O)Nc2ccc(-c3nc4cc(C)ccc4[nH]3)cc2)cc1OC
class: False
--
smiles-input: O=C(Nc1ccc(-c2nc3cc4ccccc4cc3[nH]2)cc1)c1cccc(Br)c1
class: False
--
smiles-input: Cc1ccc2[nH]c(-c3ccc(NC(=O)c4ccc(C)c(C)c4)cc3)nc2c1
class: False

* * *

Test system: EV-A71
protocol-details: CPE inhibition assay (Cell Titer Glo) against EV-A71 in Vero cells
Type: cell-based, Enterovirus A71
conditions-used: Enterovirus A, EVA71; Table 7; EV-A71, Vero cells; read-out: IC50
Quick list: IC50 per entry.

compound: Nc1nc(N)nc(COC(=O)CCc2c(-c3ccc(F)cc3)[nH]c3ccc(F)cc23)n1 [Compound 111]
IC50: 44.7 µM

compound: O=C(Cn1nc2c(Oc3cccc(F)c3)nccn2c1=O)Nc1cccc(Cl)c1 [Compound 167]
IC50: 59.4 µM

* * *

target-or-test-system: EV-A71 Δ2C^116-329 (Human enterovirus 71)
Construct: EV-A71 Δ2C (amino acids 116-329) was designed with; made in house; host or cells: E. coli Rosetta 2(DE3) pLysS, pMALc5x vector
protocol-details: biochemical
Format: biochemical
conditions-used: read-out: IC50 for ATPase inhibition

molecule: Cl.N=C(N)N [GnHCl, Guanidinium hydrochloride, reference compound]
target-or-test-system: EV-A71 Δ2C^116-329 (Human enterovirus 71)
IC50 [mM]: 83.6

* * *

Recorded CC50 at 3 days, one value per entry.
protocol-details: in vitro
conditions-used: African green monkey, CC50 (μM)

compound: CC(=O)Nc1ccc(C(=O)Nc2ccc(-c3nc4ccccc4[nH]3)cc2)cc1 [Compound 3]
result-modifier: >
CC50 at 3 days / µM: 400
--
compound: COc1ccc(C(=O)Nc2ccc(-c3nc4cc(C)ccc4[nH]3)cc2)cc1OC [Compound 37]
result-modifier: >
CC50 at 3 days / µM: 400
--
compound: O=C(Nc1ccc(-c2nc3ccccc3[nH]2)cc1)c1ccccc1 [Compound 6]
result-modifier: =
CC50 at 3 days / µM: 13.7
--
compound: O=C(Nc1ccc(-c2nc3cc4ccccc4cc3[nH]2)cc1)c1cccc(Br)c1 [Compound 48]
result-modifier: =
CC50 at 3 days / µM: 302
--
compound: Cc1ccc2[nH]c(-c3ccc(NC(=O)Cc4ccccc4)cc3)nc2c1 [Compound 39]
result-modifier: >
CC50 at 3 days / µM: 400
--
compound: Cc1ccc2[nH]c(-c3ccc(NC(=O)C(F)(F)F)cc3)nc2c1 [Compound 34]
result-modifier: =
CC50 at 3 days / µM: 618
--
compound: O=C(Nc1ccc(-c2nc3ccccc3[nH]2)cc1)c1ccc(-c2cccc([N+](=O)[O-])c2)o1 [Compound 23]
result-modifier: =
CC50 at 3 days / µM: 1.14
--
compound: Cc1ccc2[nH]c(-c3ccc(NC(=O)c4cccs4)cc3)nc2c1 [Compound 36]
result-modifier: =
CC50 at 3 days / µM: 78.7
--
compound: Nc1ccc(-c2nc3ccc(Cl)cc3[nH]2)cc1 [Compound 61, 4-(6-chloro-1H-benzimidazol-2-yl)aniline]
result-modifier: =
CC50 at 3 days / µM: 126
